Test system: MRC-5 (human lung fibroblasts, non-cancerous)
Experiment description: Colorimetric MTT cytotoxicity assay, MRC-5
Format: cell-based
Assay setup: MRC5, 72 h, read-out: IC50 MRC-5
Assay readout: IC50 (µM)
Field: numeric (µM). Do not append units.

In: Fill blank: measured IC50 of the compound `C=C(C)[C@H]1CC[C@@]2(C)CC[C@]3(C)C[C@H]4[C@@H](C)CC(=O)[C@H]4/C(C=O)=C\C[C@H]3[C@H]12` is ____.
Out: 1.1

====

System: MCF-7 (human breast adenocarcinoma) cell line
Experiment description: Colorimetric MTT cytotoxicity assay, MCF-7
Type: cell-based
Assay setup: Homo sapiens, MCF7, read-out: IC50s in both cancer cell lines
pIC50: −log10 of the molar value.
Assay readout: pIC50

In: Fill blank: measured pIC50 of the compound `C=C(C)[C@H]1CC[C@@]2(C)CC[C@]3(C)C[C@H]4[C@@H](C)CC(=O)[C@H]4/C(C=O)=C\C[C@H]3[C@H]12` is ____.
Out: 5.10 to 6.00

// data source = paper PMC10793096
